Where do these numbers come from? They come from ChEMBL document CHEMBL1153619.

experiment: ABTS radical scavenging activity assessed as Trolox equivalent antioxidant capacity index at pH 7 by spectrophotometry; assay type: physicochemical
// returns NOT MET unless Activity is strictly below 4, in which case MET

compound | group-label
O=C(O)C1=C/C(=C\C=N/CCc2ccccc2)C[C@@H](C(=O)O)N1 | MET
Oc1ccc(/C=C/c2cc(O)cc(O)c2)cc1 | MET
O=C(O[C@@H]1Cc2c(O)cc(O)cc2O[C@@H]1c1cc(O)c(O)c(O)c1)c1cc(O)c(O)c(O)c1 [EPIGALOCATECHIN GALLATE] | NOT MET

====

Activity listing for selected compounds.
test: Antioxidant activity assessed as Trolox molar equivalence for reduction of Fe(III) at pH 3.6 by ferric reducing antioxidant power assay; assay type: functional

entry-smiles | Activity
O=C(O)C1=C/C(=C\C=N/CCc2cccc(O)c2)C[C@@H](C(=O)O)N1 | 2.7
O=C(O)C1=C/C(=C\C=N/CCc2ccccc2)C[C@@H](C(=O)O)N1 | 1.1
CCC/N=C\C=C1/C=C(C(=O)O)N[C@H](C(=O)O)C1 | 1.1
O=C(O)C1=C/C(=C\C=N/CCc2ccc(O)c(O)c2)C[C@@H](C(=O)O)N1 | 3.3
O=C(O)C1=C/C(=C\C=N/CCc2ccc(O)cc2)C[C@@H](C(=O)O)N1 | 1.1
